Protocol summary: binders of probe aFGF2 on microarray, primary screen, stem cell growth factor project, biochemical, small-molecule microarray, fluorescence 635/667 (AID 1067);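 also: measures binding of biotinylated aFGF2 protein to printed compounds on slides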
Run parameters: higher = more signal
Param threshold (0.1) applies to composite z-score; output met when value >= threshold, not met when value < threshold.

[
  {
    "Molecule": "CC[C@H]1C2=C3C(CC[C@H]4C(OCc5ccc(F)cc5C(F)(F)F)OC[C@](C)([C@@H]34)N(C(=O)OC(C)(C)C)C2)C(COC(C)=O)C1COC(C)=O (stereo partly drawn)",
    "Label class": "not met"
  },
  {
    "Molecule": "O=C1OCCC/C=C\\[C@H]2OC34C=CCN(Cc5ccccc5)C(=O)[C@H]3N(CCO)C(=O)[C@@H]4C12 (stereo partly drawn)",
    "Label class": "not met"
  },
  {
    "Molecule": "COCCCNC(=O)[C@]1(Cc2ccccc2CN=[N+]=[N-])N=C(c2ccc(OCCCO)cc2)O[C@@H]1c1ccccc1N=[N+]=[N-]",
    "Label class": "met"
  },
  {
    "Molecule": "O=C1O[C@@H](c2ccccc2)[C@@H](c2ccccc2)N2[C@@H](c3ccccc3OCCO)[C@]3(C(=O)Nc4ccc(C#CC5(O)CCCCCC5)cc43)[C@@H](C(=O)N3CCCCCCC3)[C@H]12",
    "Label class": "met"
  },
  {
    "Molecule": "C=CCOC(=O)[C@@H]1[C@H]2C(=O)O[C@H](c3ccccc3)[C@H](c3ccccc3)N2[C@H](c2ccc(OCCOC(=O)[C@H]3C[C@H]4C(=O)N[C@@H](CCCCN(C)C)C(=O)N4[C@H]3c3cccc(OCCO)c3)cc2)[C@@]12C(=O)Nc1ccccc12",
    "Label class": "not met"
  },
  {
    "Molecule": "CO[C@H]1O[C@H](CO)[C@@H](OC(=O)Nc2cccc(F)c2)[C@H](OC(=O)Nc2ccc3c(c2)OCO3)[C@@H]1OC(=O)Nc1ccc2c(c1)OCO2",
    "Label class": "met"
  },
  {
    "Molecule": "Cc1ccc(S(=O)(=O)N2[C@@H](c3ccccc3)C(C(=O)O)=C[C@H]2C(C)(C)C)cc1",
    "Label class": "not met"
  },
  {
    "Molecule": "CC(C)[Si]1(C(C)C)OCc2cc(-c3ccc(-c4ccc(Cl)c(Cl)c4)o3)nc(-c3ccc(Oc4ccccc4)cc3)c21",
    "Label class": "not met"
  },
  {
    "Molecule": "CC(C)c1ccc(NN2C(C(O)C3CCCCC3)C=CC3C(=O)N(c4ccccc4)C(=O)C32)cc1 (stereo not drawn)",
    "Label class": "met"
  },
  {
    "Molecule": "CCOC(=O)C[C@H]1[C@H](OC(=O)Cc2ccc3c(c2)OCO3)[C@@H](NC(=O)CC(C)C)c2cc(OCCCO)ccc2N1C(=O)c1ccc2ccccc2n1",
    "Label class": "not met"
  },
  {
    "Molecule": "COc1ccc([Si](C)(C)[C@@H]2[C@@H](CC(=O)N(CCO)Cc3ccccc3)O[C@]3(C(=O)N(Cc4cccc(I)c4)c4ccccc43)[C@H]2C)cc1",
    "Label class": "not met"
  },
  {
    "Molecule": "COC(=O)C1(CC(C)C)C=C2C(=C(C)C(=O)C2C)CN1 (stereo not drawn)",
    "Label class": "met"
  },
  {
    "Molecule": "COC(=O)[C@@]1(Cc2ccc(F)cc2)[C@H]2c3cc(C(=O)N(C)C)n(CCF)c3C[C@H]2CN1C(=O)c1ccccc1",
    "Label class": "met"
  }
]
